Entry source: patent US12162840B2

# Test system: warm season plant species
# test protocol: B2 Post-emergence efficacy Test 2, warm season plant species
# Format: in vivo
# run conditions: Panicum miliaceum, 125 g/Ha, 15 days after application, 0-100 scale, 0=no damage, 100=total kill
recorded endpoint: Herbicidal activity, PANMI
Give bare numbers.

Consider the worked cases shown below.
# smiles structure, Herbicidal activity, PANMI
data = [
    ("Cc1nn(C)c(=O)c(-c2c(F)ccc(Cl)c2CCc2ccc(F)cc2)c1O", 80),
    ("Cc1nn(C)c(=O)c(-c2c(F)ccc(Cl)c2CCc2ccc(C#N)cc2)c1O", 90),
    ("Cc1nn(C)c(=O)c(-c2c(F)ccc(Cl)c2CCc2ccc(Cl)cc2)c1OC(=O)C(C)C", 60),
]

Report Herbicidal activity, PANMI for every entry below.
1. Cc1nn(C)c(=O)c(-c2c(F)ccc(Cl)c2CCc2ccccc2C(F)(F)F)c1O
2. Cc1nn(C)c(=O)c(-c2c(F)ccc(Cl)c2CCc2ccc(F)cc2)c1OC(=O)C(C)C

80
50
